meta.source: PubChem BioAssay AID2253

- System: THP-1 viability, CellTiter-Glo luminescence, 72 h
- assay: THP-1 cell cytotoxicity, dose response, cytotoxicity control for Salmonella PhoP regulon inhibitors, S. typhimurium screen hits (AID 2253)

{"molecule": "Nc1cc2nsnc2cc1Br", "target.under.test": "THP-1 viability, CellTiter-Glo luminescence, 72 h", "EC50": "7.44 µM"}
{"molecule": "Cc1ccc(Nc2nc(N)c3ccccc3n2)cc1Cl", "target.under.test": "THP-1 viability, CellTiter-Glo luminescence, 72 h", "EC50": "16.3 µM"}
{"molecule": "NC1=NC(=Nc2cccc(Cl)c2)c2ccccc21", "target.under.test": "THP-1 viability, CellTiter-Glo luminescence, 72 h", "EC50": "32.4 µM"}
{"molecule": "Cc1cc(-c2csc(N)n2)c(C)n1-c1ccccc1", "target.under.test": "THP-1 viability, CellTiter-Glo luminescence, 72 h", "EC50": "16.9 µM"}
{"molecule": "Cc1[nH]n(-c2ncc(-c3ccc(Cl)cc3)s2)c(=O)c1C(c1ccc(Cl)cc1)C(C#N)C#N (configuration not stated)", "target.under.test": "THP-1 viability, CellTiter-Glo luminescence, 72 h", "EC50": "45 µM"}
{"molecule": "CCOC(=O)C[n+]1c(C)sc2ccc(OC)cc21", "target.under.test": "THP-1 viability, CellTiter-Glo luminescence, 72 h", "EC50": "25.8 µM"}
{"molecule": "O=C(N/N=C/c1cccc([N+](=O)[O-])c1O)c1cccs1", "target.under.test": "THP-1 viability, CellTiter-Glo luminescence, 72 h", "EC50": "13.4 µM"}
{"molecule": "CCOC(=O)N1CCN(C(c2cccnc2)c2ccc3cccnc3c2O)CC1 (configuration not stated)", "target.under.test": "THP-1 viability, CellTiter-Glo luminescence, 72 h", "EC50": "9.3 µM"}
{"molecule": "Cc1ccc(-n2c(C)cc(C3=NNC(=NC4CC4)SC3)c2C)cc1C", "target.under.test": "THP-1 viability, CellTiter-Glo luminescence, 72 h", "EC50": "21.4 µM"}
{"molecule": "O=C(Nc1nc2cc3c(cc2s1)OCO3)C1=COCCO1", "target.under.test": "THP-1 viability, CellTiter-Glo luminescence, 72 h", "EC50": "6.67 µM"}
{"molecule": "O=Nc1ccc(O)c2ncccc12", "target.under.test": "THP-1 viability, CellTiter-Glo luminescence, 72 h", "EC50": "1.77 µM"}
{"molecule": "O=C(N/N=C/c1ccc(O)cc1O)C(=O)N/N=C/c1ccc(O)cc1O", "target.under.test": "THP-1 viability, CellTiter-Glo luminescence, 72 h", "EC50": "6.9 µM"}
